biological target: SARS-CoV-2 Mac1 (Severe acute respiratory syndrome coronavirus 2); test: biochemical; conditions: read-out: %inhibition
Where a name gives a salt, the structure may show the parent alone.
Everything with inhibition at 100 µM lower than 5% is label 0; everything else, including exactly 5%, is label 1.

Some solved entries appear below for comparison.
| molecule | test_target | class_assignment |
| --- | --- | --- |
| C[C@]12C=CC(=O)C=C1CC[C@@H]1[C@@H]2[C@@H](O)C[C@@]2(C)[C@H]1CC[C@]2(O)C(=O)CO | SARS-CoV-2 Mac1 (Severe acute respiratory syndrome coronavirus 2) | label 1 |
| C1N2CN3CN1CN(C2)C3 | SARS-CoV-2 Mac1 (Severe acute respiratory syndrome coronavirus 2) | label 0 |
| O=c1cc[nH]c(=O)[nH]1 | SARS-CoV-2 Mac1 (Severe acute respiratory syndrome coronavirus 2) | label 0 |
| CN(C)c1ccc2nc3ccc(=[N+](C)C)cc-3sc2c1 | SARS-CoV-2 Mac1 (Severe acute respiratory syndrome coronavirus 2) | label 1 |
| Oc1c(I)cc(Cl)c2cccnc12 | SARS-CoV-2 Mac1 (Severe acute respiratory syndrome coronavirus 2) | label 1 |

Exercise: Tell me whether inhibition at 100 µM is at least 5% here: O=c1[nH]c(=O)n(C2CCCO2)cc1F (stereo not shown)
Key: label 0

Exercise: Tell me whether inhibition at 100 µM is at least 5% here: O=C(O)c1ccc(-n2nc(-c3ccccc3O)nc2-c2ccccc2O)cc1
Key: label 1

Exercise: Tell me whether inhibition at 100 µM is at least 5% here: CCc1c(C)[nH]c2c1C(=O)C(CN1CCOCC1)CC2 (stereo not shown) [Molindone hydrochloride]
Key: label 0

Exercise: Tell me whether inhibition at 100 µM is at least 5% here: c1cc(CN2CCCNCCNCCCNCC2)ccc1CN1CCCNCCNCCCNCC1
Key: label 1

Exercise: Tell me whether inhibition at 100 µM is at least 5% here: CCCCc1ncc(/C=C(\Cc2cccs2)C(=O)O)n1Cc1ccc(C(=O)O)cc1 [Eprosartan Mesylate]
Key: label 1

Exercise: Tell me whether inhibition at 100 µM is at least 5% here: CC(C)c1cc(-c2n[nH]c(=O)n2-c2ccc3c(ccn3C)c2)c(O)cc1O [Ganetespib (STA-9090)]
Key: label 0

Exercise: Tell me whether inhibition at 100 µM is at least 5% here: COc1cc(C(=O)NS(=O)(=O)c2ccccc2C)ccc1Cc1cn(C)c2ccc(NC(=O)OC3CCCC3)cc12
Key: label 0

Exercise: Tell me whether inhibition at 100 µM is at least 5% here: Nc1ccc(S(=O)(=O)Nc2nccs2)cc1
Key: label 1
